Biological target: T1, human CD22 on CD22-positive Burkitt's lymphoma cells (Daudi, Raji, Ramos) (human, UniProt P20273 20-847)
T1 construct: whole, on cells; also called CD22+ cells; CD22 positive cells
T1 sequence (looked up): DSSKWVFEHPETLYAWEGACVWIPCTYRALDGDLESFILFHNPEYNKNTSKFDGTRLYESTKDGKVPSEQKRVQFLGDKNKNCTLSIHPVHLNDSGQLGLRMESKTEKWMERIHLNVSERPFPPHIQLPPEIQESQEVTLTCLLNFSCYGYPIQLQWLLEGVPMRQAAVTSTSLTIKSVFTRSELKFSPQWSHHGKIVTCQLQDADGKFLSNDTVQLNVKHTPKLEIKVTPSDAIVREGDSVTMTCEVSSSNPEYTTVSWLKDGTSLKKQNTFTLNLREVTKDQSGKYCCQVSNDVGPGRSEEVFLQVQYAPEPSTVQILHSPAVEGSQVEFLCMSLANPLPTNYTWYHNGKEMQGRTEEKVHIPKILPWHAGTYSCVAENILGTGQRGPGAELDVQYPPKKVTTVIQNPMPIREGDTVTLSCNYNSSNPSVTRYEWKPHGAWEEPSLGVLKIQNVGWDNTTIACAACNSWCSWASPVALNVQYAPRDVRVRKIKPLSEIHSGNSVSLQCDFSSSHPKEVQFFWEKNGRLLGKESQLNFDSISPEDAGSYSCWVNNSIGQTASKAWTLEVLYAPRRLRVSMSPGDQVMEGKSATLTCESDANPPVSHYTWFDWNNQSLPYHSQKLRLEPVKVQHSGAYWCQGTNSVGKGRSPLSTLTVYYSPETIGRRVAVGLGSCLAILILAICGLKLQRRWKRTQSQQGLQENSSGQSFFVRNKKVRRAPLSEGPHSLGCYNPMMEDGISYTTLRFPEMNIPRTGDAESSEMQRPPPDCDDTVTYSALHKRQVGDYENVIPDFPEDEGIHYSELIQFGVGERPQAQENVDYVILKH
Test: cell binding, Daudi cells
PARAMETER MEASURED: binding result

anti-CD22 heavy chain-only antibody with the VH of SEQ ID NO: 40 (antibody, V domains shown, Heavy chain-only antibody (UniAb), human IgG) VH: QLQLQESGPGLVKPSETLSLTCTVSGDSISSGDYYWGWIRQPPGKGLEWIGHIYYSGATYYNPSLKNRVTISVDTSKNQFSLKLSSVTAADTAVYYCTREDSSSWRSRGQGTLVTVSS
binds
anti-CD22 heavy chain-only antibody with the VH of SEQ ID NO: 84 (antibody, V domains shown, Heavy chain-only antibody (UniAb), human IgG) VH: QLQLQESGPGLVKPSETLSLTCTVSGGSINDNSHYWGWIRQPPGKGLEWIGHIYYSGATYYNPSLKNRVTISVDTSRNQFSLNLSSVTAADTAVYYCTREDSSSWRSRGQGTLVTVSS
binds

The measurements presented in this section are drawn from patent US11873336.
